Measured On: panel of 255 wild-type kinases (Homo sapiens, UniProt Q8NE63)
Sequence (Q8NE63 1-616): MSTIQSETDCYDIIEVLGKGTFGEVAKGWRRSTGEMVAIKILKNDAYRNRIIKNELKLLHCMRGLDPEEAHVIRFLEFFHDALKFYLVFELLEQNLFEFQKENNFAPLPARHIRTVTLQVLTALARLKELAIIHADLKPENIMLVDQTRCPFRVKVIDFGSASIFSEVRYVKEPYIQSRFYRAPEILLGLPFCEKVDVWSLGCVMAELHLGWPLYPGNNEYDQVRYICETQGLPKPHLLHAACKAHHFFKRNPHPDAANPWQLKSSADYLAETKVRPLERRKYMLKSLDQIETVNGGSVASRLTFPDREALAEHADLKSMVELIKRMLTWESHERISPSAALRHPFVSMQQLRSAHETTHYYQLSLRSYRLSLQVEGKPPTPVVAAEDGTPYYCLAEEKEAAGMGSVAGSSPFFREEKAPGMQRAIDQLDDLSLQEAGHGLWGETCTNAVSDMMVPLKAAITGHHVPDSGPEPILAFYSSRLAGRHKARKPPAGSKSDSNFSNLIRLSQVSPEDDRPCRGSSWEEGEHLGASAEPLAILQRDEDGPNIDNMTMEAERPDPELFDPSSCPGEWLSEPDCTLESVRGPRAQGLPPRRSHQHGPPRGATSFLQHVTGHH
Assay Overview: Kinase panel profiling at 1 µmol/L (MSA or IMAP), percentage inhibition
Type: biochemical
Test Parameters: kinase HIPK4; 1 µmol/L single concentration; read-out: %-inhibition at 1 µmol/L, HIPK4
Value Kind: inhibition at 1 µM (%)
Quick reminder: number only, in %, skip the unit.

# count of solved cases: 3
Exercise: Would you kindly share the measured inhibition at 1 µM for Cn1cnc2c(F)c(Nc3ccc(Br)cc3Cl)c(C(=O)NOCCO)cc21 [selumetinib] ?
Solution: 10

Exercise: # inhibition at 1 µM lookup, item Cn1cnc2c(F)c(Nc3ccc(Br)cc3F)c(C(=O)NOCCO)cc21 [binimetinib]
Solution: -3.77

Exercise: Need inhibition at 1 µM of COC(=O)N[C@@H](C)CNc1nccc(-c2cn(C(C)C)nc2-c2cc(Cl)cc(NS(C)(=O)=O)c2F)n1 [encorafenib] , thanks.
Solution: 59

Further cases:
Exercise: Sample FC(F)(F)c1ccc(CNc2ccc(Cc3c[nH]c4ncc(Cl)cc34)cn2)cn1 [pexidartinib] — what was its inhibition at 1 µM?
Solution: 52
